Hello, the source for this data is patent US8013159B2, in case you need it.

Molecular target: EP4 receptor (Homo sapiens)
Sequence (P35408 whole entry): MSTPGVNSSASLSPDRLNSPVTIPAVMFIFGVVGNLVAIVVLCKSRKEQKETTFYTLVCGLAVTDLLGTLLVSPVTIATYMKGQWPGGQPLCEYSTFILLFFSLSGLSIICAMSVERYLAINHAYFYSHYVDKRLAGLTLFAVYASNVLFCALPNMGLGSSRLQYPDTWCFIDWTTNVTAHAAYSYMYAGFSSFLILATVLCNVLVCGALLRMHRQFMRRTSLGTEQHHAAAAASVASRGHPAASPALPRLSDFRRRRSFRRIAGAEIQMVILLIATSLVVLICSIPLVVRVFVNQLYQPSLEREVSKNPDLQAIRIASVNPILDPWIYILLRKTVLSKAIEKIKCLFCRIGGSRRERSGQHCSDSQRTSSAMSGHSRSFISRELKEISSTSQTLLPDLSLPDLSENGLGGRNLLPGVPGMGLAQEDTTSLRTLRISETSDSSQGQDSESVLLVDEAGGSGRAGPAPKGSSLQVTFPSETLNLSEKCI
# if measured IC50 < 0.6 nM: 1  # else: 0

Challenge: Quick check: IC50 of CCOc1c2c(c(OCC)c3ncccc13)CN(c1ccc(CS(=O)(=O)NC(=O)Cc3cccc4ccccc34)cc1C)C2=O [Example 19] under 0.6 nM?
Response given: 0

Challenge: Quick check: IC50 of COc1cccc(OC)c1C1(C(=O)NS(=O)(=O)Cc2ccc(N3Cc4c(c(OCC(F)(F)F)c5cccnc5c4OCC(F)(F)F)C3=O)c(C)c2)CC1 [Example 33] under 0.6 nM?
Response given: 0

Challenge: Quick check: IC50 of CCOc1c2c(c(OCC)c3ncccc13)CN(c1ccc(CS(=O)(=O)NC(=O)Cc3ccccc3OC)cc1C)C2=O [Example 1] under 0.6 nM?
Response given: 1

Challenge: Quick check: IC50 of CCOc1c2c(c(OCC)c3ncccc13)CN(c1ccc(CS(=O)(=O)NC(=O)Cc3ccccc3C(F)(F)F)cc1C)C2=O [Example 7] under 0.6 nM?
Response given: 1
